Field: Ki. Provide a value for each of the compounds that follow.
Biological target: Metallo-beta-lactamase type 2 (Aeromonas hydrophila, UniProt P26918)
Sequence (P26918 whole entry): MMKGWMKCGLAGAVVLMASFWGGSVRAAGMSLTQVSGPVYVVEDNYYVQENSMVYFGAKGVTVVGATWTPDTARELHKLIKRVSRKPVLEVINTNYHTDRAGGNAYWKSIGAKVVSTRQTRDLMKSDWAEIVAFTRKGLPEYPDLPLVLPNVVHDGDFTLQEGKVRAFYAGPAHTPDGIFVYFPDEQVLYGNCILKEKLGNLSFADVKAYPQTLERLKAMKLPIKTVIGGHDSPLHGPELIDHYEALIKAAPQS
Assay: Inhibition of Aeromonas hydrophila cphA
Numbers only here, please. The scale is µM.

Asked: Please report the recorded Ki for O=P(O)(O)c1ccccc1S .
Given back: 7

Asked: Would you mind doing COc1ccccc1C(S)P(=O)(O)O (configuration not stated) as well?
Given back: 15

Asked: Would you mind doing CCC(S)P(=O)(OC(C)C)OC(C)C (configuration not stated) as well?
Given back: 2

Asked: Would you mind doing O=P(O)(O)C(S)c1ccc(Cl)cc1 (configuration not stated) as well?
Given back: 24

Asked: Would you mind doing O=P(O)(O)C(S)c1ccc(Cl)cc1Cl (configuration not stated) as well?
Given back: 5
